- Tested on: 475296-252-R-J1-PDC spheroid viability;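 also: spheroids exposed to agents for seven days before readout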
- TEST_NAME: Anticancer human tumor 475296-252-R-J1-PDC patient-derived rectal carcinoma cell line growth inhibition [PI3K]
- STATED_CONDITIONS: second compound 0.1 µM; first compound 1 µM; hits give low values; spheroids with HUVEC and MSC
# reported viability, T/C; entries follow
PROPERTY_NAME: viability, T/C (%)

INSERT INTO assay_data (compound, target_entity, units_symbol, result_value) VALUES
  ('CCCS(=O)(=O)Nc1ccc(F)c(C(=O)c2c[nH]c3ncc(-c4ccc(Cl)cc4)cc23)c1F + COc1c(OCCCN2CCOCC2)ccc2c3n(c(=NC(=O)c4cnc(N)nc4)nc12)CCN3', '475296-252-R-J1-PDC spheroid viability', '%', 78.8),
  ('C=CC(=O)N1CCN(c2nc(=O)n(-c3c(C)ccnc3C(C)C)c3nc(-c4c(O)cccc4F)c(F)cc23)C(C)C1 (stereo not given) + Cc1nc(NC(=O)N2CCCC2C(N)=O)sc1-c1ccnc(C(C)(C)C(F)(F)F)c1', '475296-252-R-J1-PDC spheroid viability', '%', 82),
  ('CC1(C)CCC(Nc2ncc(C(F)(F)F)c(-c3c[nH]c4c(P(C)(C)=O)c(C#N)ccc34)n2)CN1 (stereo not given) + COc1c(OCCCN2CCOCC2)ccc2c3n(c(=NC(=O)c4cnc(N)nc4)nc12)CCN3', '475296-252-R-J1-PDC spheroid viability', '%', 82),
  ('CCN1CCN(Cc2ccc(Nc3ncc(F)c(-c4cc(F)c5nc(C)n(C(C)C)c5c4)n3)nc2)CC1 + CC(Nc1ncnc2nc[nH]c12)c1cc2cccc(Cl)c2c(=O)n1-c1ccccc1', '475296-252-R-J1-PDC spheroid viability', '%', 89.1),
  ('CC(C)NCC(C(=O)N1CCN(c2ncnc3c2C(C)CC3O)CC1)c1ccc(Cl)cc1 (stereo not given) + Cc1nc(NC(=O)N2CCCC2C(N)=O)sc1-c1ccnc(C(C)(C)C(F)(F)F)c1', '475296-252-R-J1-PDC spheroid viability', '%', 80.3);
